# Test Details: small-molecule microarray binders of probe aLefty2, primary screen, biochemical, biotinylated probe, 635/667 nm fluorescence (AID 1094);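 further: score merges spot fluorescence near 667 nm with spot signal-to-noise ratio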
# Assay Context: higher = more signal
Catalogue of composite z-score readings, one per entry.

A selection of reference data follows.
COC(=O)C(CC#Cc1ccc2c(c1)[C@]1(C(=O)N2)[C@H](c2ccc(O)cc2)N2[C@H](c3ccccc3)[C@H](c3ccccc3)OC(=O)[C@H]2[C@@H]1C(=O)Nc1nc2ccccc2s1)C(=O)OC ... 0.0669
CCN(CC)c1ccc(N2CC=CC34O[C@@H]5/C=C\CCC(C)OC(=O)C5[C@H]3C(=O)N(C(CO)C(C)C)[C@@H]4C2=O)cc1 (stereo partly specified) ... -0.17
COCCOC(=O)N1C(=O)[C@@]2(c3cc(C#CC4=CCCCC4)ccc31)[C@H](C(=O)Nc1nc3ccccc3s1)[C@H]1C(=O)O[C@H](c3ccccc3)[C@H](c3ccccc3)N1[C@@H]2c1ccccc1OCCO ... 0.255
COCCCNC(=O)[C@@]1(Cc2ccccc2)N=C(c2ccc(OCCCO)cc2)O[C@H]1c1ccccc1 ... 0.355

Look up and state reported composite z-score for COc1ccc([C@H]2C[C@H]3C(Br)=C[C@@H]2C(=O)[C@]32CO2)cc1
-0.0561

Please supply the value of reported composite z-score for the item CCOC1=C2C(CN(S(=O)(=O)c3ccc(C)cc3)C2c2ccc(C)cc2)C2C(=O)N(c3ccccc3)C(=O)C2C1 (stereo unspecified)
-0.0515

Reference source for all entries: PubChem BioAssay
